# assay_notes: Solubility of the compound of Formula (1) in various solvents (excess compound, shaking, HPLC)
# Assay type: physicochemical
# assay_conditions: organic solvent or mixture, thermodynamic from solid; in Polyethylene glycol-35 castor oil; 25° C., 24 hours
endpoint: solubility at 24 h (µg/mL)

mol	unit_descriptor	measured_number
CCCc1nc(C(F)(F)F)ccc1/C=C/C(=O)N[C@H](C)c1cc(F)c(NS(C)(=O)=O)c(F)c1	µg/mL	2700

----------
# assay_notes: Solubility of the compound of Formula (1) in various solvents (excess compound, shaking, HPLC)
# Type: physicochemical
# assay_conditions: oil or lipid, thermodynamic from solid; in Corn oil; 25° C., 24 hours

mol	unit_descriptor	solubility at 24 h
CCCc1nc(C(F)(F)F)ccc1/C=C/C(=O)N[C@H](C)c1cc(F)c(NS(C)(=O)=O)c(F)c1	µg/mL	1800

----------
# assay_notes: Solubility of the compound of Formula (1) in various solvents (excess compound, shaking, HPLC)
# Type: physicochemical
# assay_conditions: oil or lipid, thermodynamic from solid; in Miglyol; 25° C., 24 hours
endpoint: solubility at 24 h (µg/mL)

mol	measured_number
CCCc1nc(C(F)(F)F)ccc1/C=C/C(=O)N[C@H](C)c1cc(F)c(NS(C)(=O)=O)c(F)c1	1400

----------
# assay_notes: Solubility of the compound of Formula (1) in various solvents (excess compound, shaking, HPLC)
# Format: physicochemical
# assay_conditions: organic solvent or mixture, thermodynamic from solid; in Acetonitrile; 25° C., 24 hours
endpoint: solubility at 24 h (mg/mL)

molecule	endpoint	unit_descriptor	measured_number
CCCc1nc(C(F)(F)F)ccc1/C=C/C(=O)N[C@H](C)c1cc(F)c(NS(C)(=O)=O)c(F)c1 [compound of Formula (1)]	solubility at 24 h	mg/mL	108

----------
# assay_notes: Solubility of the compound of Formula (1) in various solvents (excess compound, shaking, HPLC)
# Type: physicochemical
# assay_conditions: organic solvent or mixture, thermodynamic from solid; in 2-Pyrrolidinone; 25° C., 24 hours

mol	solubility at 24 h (mg/mL)
CCCc1nc(C(F)(F)F)ccc1/C=C/C(=O)N[C@H](C)c1cc(F)c(NS(C)(=O)=O)c(F)c1	212

----------
# assay_notes: Solubility of the compound of Formula (1) in various solvents (excess compound, shaking, HPLC)
# Format: physicochemical
# assay_conditions: organic solvent or mixture, thermodynamic from solid; in Polysorbate 40; 25° C., 24 hours

compound	solubility at 24 h / mg/mL
CCCc1nc(C(F)(F)F)ccc1/C=C/C(=O)N[C@H](C)c1cc(F)c(NS(C)(=O)=O)c(F)c1 [compound of Formula (1)]	37

----------
# assay_notes: Solubility of the compound of Formula (1) in various solvents (excess compound, shaking, HPLC)
# Type: physicochemical
# assay_conditions: oil or lipid, thermodynamic from solid; in Propylene glycol monocaprylate; 25° C., 24 hours
endpoint: solubility at 24 h

molecule	result
CCCc1nc(C(F)(F)F)ccc1/C=C/C(=O)N[C@H](C)c1cc(F)c(NS(C)(=O)=O)c(F)c1 [compound of Formula (1)]	75 mg/mL

----------
# assay_notes: Solubility of the compound of Formula (1) in various solvents (excess compound, shaking, HPLC)
# Assay type: physicochemical
# assay_conditions: thermodynamic from solid; in Purified water; 25° C., 24 hours
endpoint: solubility at 24 h (µg/mL)

mol	endpoint	unit_descriptor	measured_number
CCCc1nc(C(F)(F)F)ccc1/C=C/C(=O)N[C@H](C)c1cc(F)c(NS(C)(=O)=O)c(F)c1	solubility at 24 h	µg/mL	50

----------
# assay_notes: Solubility of the compound of Formula (1) in various solvents (excess compound, shaking, HPLC)
# Format: physicochemical
# assay_conditions: oil or lipid, thermodynamic from solid; in Propylene glycol monolaurate; 25° C., 24 hours
endpoint: solubility at 24 h

compound	endpoint	result
CCCc1nc(C(F)(F)F)ccc1/C=C/C(=O)N[C@H](C)c1cc(F)c(NS(C)(=O)=O)c(F)c1 [compound of Formula (1)]	solubility at 24 h	7750 µg/mL

----------
# assay_notes: Solubility of the compound of Formula (1) in various solvents (excess compound, shaking, HPLC)
# Assay type: physicochemical
# assay_conditions: oil or lipid, thermodynamic from solid; in Triglycerides, Medium chain; 25° C., 24 hours
endpoint: solubility at 24 h

compound	result
CCCc1nc(C(F)(F)F)ccc1/C=C/C(=O)N[C@H](C)c1cc(F)c(NS(C)(=O)=O)c(F)c1 [compound of Formula (1)]	1900 µg/mL

----------
# assay_notes: Solubility of the compound of Formula (1) in various solvents (excess compound, shaking, HPLC)
# Format: physicochemical
# assay_conditions: organic solvent or mixture, thermodynamic from solid; in Lauroyl macrogol-32 glycerides; 25° C., 24 hours
endpoint: solubility at 24 h (mg/mL)

mol	endpoint	unit_descriptor	measured_number
CCCc1nc(C(F)(F)F)ccc1/C=C/C(=O)N[C@H](C)c1cc(F)c(NS(C)(=O)=O)c(F)c1	solubility at 24 h	mg/mL	24.1
